Values from patent US20040138134A1

# assay_target: natriuretic peptide receptor on C3H10T1/2 cells
# assay_method_text: cell-based or functional assay
Where no end group is shown, it is not given here.
Give % relative binding (cGMP, Biotrak EIA, peptide at 10^-6 M) for every item shown.
Report as a plain number; the unit % is understood.

Please give the measured % relative binding (cGMP, Biotrak EIA, peptide at 10^-6 M) for this binder: CFGLKLDRIGSMSGLGC (not fully specified (bridges); ends and bridges not checked) [CNP 5-22 (17-mer, cyclic domain of CNP)] 127

Which % relative binding (cGMP, Biotrak EIA, peptide at 10^-6 M) is listed for CFGLKLDRIGAQSC [CNP variant SEQ ID NO:15] ? 20.6

Recorded % relative binding (cGMP, Biotrak EIA, peptide at 10^-6 M) of CFGLKLDRIGC [CNP variant SEQ ID NO:22] , please. 4.2
